System: DU-145 prostate
Experiment: NCI-60 one-dose screen, 48 h (100 = growth as untreated, 0 = no growth, -100 = all killed)
Details: 10 µM unless noted
This is part of a sample that, as a whole, favours compounds with a hit. Of some 83,000 tested, about 20% had one in any assay.
observation type: growth (%)
Just the number in %, nothing appended.

### Prompt Please give the measured growth for this compound: COC1=CC(c2ccc[nH]2)=N/C1=C\c1[nH]c(C)c(C(=O)CCCCC(=O)NCc2ccccc2)c1C
### Response 17

### Prompt Please give the measured growth for this compound: Cc1ccc2c(c1)ncn2-c1ncnc2c1CC(C)c1ccccc1N2C (stereo not given)
### Response 11.8

### Prompt Please give the measured growth for this compound: COc1ccc(/C=C/C(=O)c2cc(OC)c(OC)c(OC)c2)cc1OCc1cn(Cc2ccc(F)cc2)nn1
### Response 59.3

---
### Prompt Please give the measured growth for this compound: C/C1=C\CCC2(C)OC2CC2CCC(C)(O)C(CC1)C2(C)C (stereo not given)
### Response 96.1

### Prompt Please give the measured growth for this compound: O=C(Nc1ccc(I)cc1)c1cccc([N+](=O)[O-])c1O
### Response 32.5

### Prompt Please give the measured growth for this compound: COc1ccc(-c2cn[nH]c2-c2cc(OC)c3c(c2)OCO3)cc1
### Response 12.4

### Prompt Please give the measured growth for this compound: Nc1c(C(=O)Nc2cccc(C(F)(F)F)c2)sc2nc3c(cc12)CCCCC3
### Response 44.1

### Prompt Please give the measured growth for this compound: O=C(Nc1ccc(F)cc1)c1cc([N+](=O)[O-])ccc1O
### Response 78.3

### Prompt Please give the measured growth for this compound: COc1ccc(OC)c(/C=C2\Oc3cc(OCCN4CCCC4)ccc3C2=O)c1
### Response 96.5

### Prompt Please give the measured growth for this compound: CCN(CC)CCC(=O)c1cccc2ccccc12
### Response 108
